test system: SW-620; assay: NCI tumour cell line growth inhibition, 48 h
Active and inactive are the calls of the source. Cut-off read from the data, not from the text of the source: active = GI50 up to about 1.1 µM and inactive = higher.
Task for the reader: assign each of the following compounds its reported GI50.

// query Which GI50 value is on record for NCC(NC(=O)OCc1ccccc1)C(=O)O (configuration not stated) ?
// result > 50 µM (inactive)

// query Which GI50 value is on record for C=CCCCN1CCCCC1=S ?
// result > 100 µM (inactive)

// query Which GI50 value is on record for COC(=O)C1Cc2c(C)cccc2C1=O (configuration not stated) ?
// result > 100 µM (inactive)

// query Which GI50 value is on record for CC12CCC(=O)N1c1cccnc1N2 (configuration not stated) ?
// result > 100 µM (inactive)

// query Which GI50 value is on record for CCOC(=O)/C=C\c1c(Cl)n(-c2ccccc2)c(=O)n(-c2ccccc2)c1=O ?
// result 23.8 µM (inactive)

// query Which GI50 value is on record for CCOC(=O)c1sc2c(c1OC(=O)c1ccccc1)c(=O)n(-c1ccccc1)c(=S)n2-c1ccccc1 ?
// result 44.6 µM (inactive)

// query Which GI50 value is on record for CON(C)C(=O)C1CCCO1 (configuration not stated) ?
// result > 100 µM (inactive)

// query Which GI50 value is on record for Cc1ccc(S(=O)(=O)Nn2c(S)c(C#N)c(-c3ccc([N+](=O)[O-])cc3)c(C#N)c2=O)cc1 ?
// result 19.2 µM (inactive)

// query Which GI50 value is on record for CCC(C(=O)C(=O)OC)P1(=O)OC(C)(C)CN1C(C)(C)C (configuration not stated) ?
// result > 100 µM (inactive)

// query Which GI50 value is on record for CC1=Nc2ccccc2S(=O)(=O)N1 ?
// result > 100 µM (inactive)

// query Which GI50 value is on record for COc1cccc(CSCC(=O)O)c1 ?
// result > 100 µM (inactive)

// query Which GI50 value is on record for O=c1c2nc[nH]c2n(-c2ccccc2)c(=S)n1-c1ccccc1 ?
// result > 100 µM (inactive)
